As a worked illustration, we turn to pKi data collected for UniProtKB P00698.
Sequence (P00698 19-147): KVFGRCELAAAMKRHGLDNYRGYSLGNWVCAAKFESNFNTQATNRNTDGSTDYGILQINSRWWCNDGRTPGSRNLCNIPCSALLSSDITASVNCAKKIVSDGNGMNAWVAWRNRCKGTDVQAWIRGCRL
pKi: −log10 of the molar value.
reported.endpoint: pKi

[
  {
    "sample.smiles": "CC(=O)N[C@H]1[C@@H]2OC[C@@H](O2)[C@@H](O[C@@H]2O[C@H](CO)[C@@H](O[C@@H]3O[C@H](CO)[C@@H](O[C@@H]4O[C@H](CO)[C@@H](O)[C@H](O)[C@H]4NC(C)=O)[C@H](O)[C@H]3NC(C)=O)[C@H](O)[C@H]2NC(C)=O)[C@@H]1O",
    "system.name": "UniProtKB P00698",
    "reported.endpoint": "pKi",
    "observed": 3.52
  },
  {
    "sample.smiles": "CC(=O)N[C@H]1[C@H](O[C@H]2[C@H](O)[C@@H](NC(C)=O)[C@@H]3OC[C@H]2O3)O[C@H](CO)[C@@H](O[C@@H]2O[C@H](CO)[C@@H](O)[C@H](O)[C@H]2N)[C@@H]1O",
    "system.name": "UniProtKB P00698",
    "reported.endpoint": "pKi",
    "observed": 3.40
  },
  {
    "sample.smiles": "CC(=O)N[C@H]1[C@@H]2OC[C@@H](O2)[C@@H](O[C@@H]2O[C@H](CO)[C@@H](O[C@@H]3O[C@H](CO)[C@@H](O)[C@H](O)[C@H]3NC(C)=O)[C@H](O)[C@H]2NC(C)=O)[C@@H]1O",
    "system.name": "UniProtKB P00698",
    "reported.endpoint": "pKi",
    "observed": 3.77
  },
  {
    "sample.smiles": "CC(=O)N[C@H]1[C@@H]2OC[C@@H](O2)[C@@H](O[C@@H]2O[C@H](CO)[C@@H](O)[C@H](O)[C@H]2NC(C)=O)[C@@H]1O",
    "system.name": "UniProtKB P00698",
    "reported.endpoint": "pKi",
    "observed": 2.44
  },
  {
    "sample.smiles": "CC(=O)N[C@H]1[C@H](O[C@H]2[C@H](O)[C@@H](NC(C)=O)[C@@H]3OC[C@H]2O3)O[C@H](CO)[C@@H](O[C@@H]2O[C@H](COP(=O)(O)O)[C@@H](O)[C@H](O)[C@H]2N)[C@@H]1O",
    "system.name": "UniProtKB P00698",
    "reported.endpoint": "pKi",
    "observed": 3.12
  }
]

Reference for the values: paper PMC4224617
